conditions: in ethanol, 313.15 K

{"columns": ["COMPOUND_SMILES", "solubility (mole fraction)"],
 "data": [
  ["COc1cc(N)nc(OC)n1", 0.0383]
]}

---

settings: in methanol, 308.15 K

{"columns": ["COMPOUND_SMILES", "solubility (mole fraction)"],
 "data": [
  ["COc1cc(N)nc(OC)n1", 0.0414]
]}

---

conditions: in isopropanol, 293.15 K

{"columns": ["COMPOUND_SMILES", "solubility (mole fraction)"],
 "data": [
  ["COc1cc(N)nc(OC)n1", 0.0101]
]}

---

details: in isopropanol, 288.15 K

{"columns": ["COMPOUND_SMILES", "solubility (mole fraction)"],
 "data": [
  ["COc1cc(N)nc(OC)n1", 0.00742]
]}
